- System: OVCAR-4 ovarian
- Experimental protocol: NCI tumour cell line growth inhibition, 48 h
Each entry below carries its recorded TGI.

Consider the following illustrative entries.
>>> experimental_value("CC(=O)O/C=C\\OC1CCCC1")
"> 100 µM"
>>> experimental_value("CO[C@@]12CC(=O)/C(=C(O)\\C=C\\c3ccccc3)C(=O)[C@]1(OC)Cc1ccccc1O2")
"> 100 µM"
>>> experimental_value("Cc1cc(=O)oc2c(CNC(C(=O)O)C(C)O)c(O)ccc12 (configuration not stated)")
"> 100 µM"
>>> experimental_value("C/C(CN1C(=O)c2ccccc2C1=O)=N\\NS(=O)(=O)c1ccc(F)cc1")
"> 100 µM"
>>> experimental_value("FC(F)(F)C1=NC(=NNc2nnc(-c3ccccc3)c(-c3ccccc3)n2)N=C(C(F)(F)F)C1")
"> 100 µM"
>>> experimental_value("CCCc1ccc(OCC(=O)N/N=C/c2c(-c3ccccc3)[nH]c3ccccc23)cc1")
"42.7 µM"

Sample `NNC(=S)N/N=C/C(Cl)=C(\Cl)C(=O)O` ; TGI observed: > 100 µM

Sample `COc1cc(NCc2ccc3n2-c2ccccc2OC3)cc(OC)c1OC` ; TGI observed: 55.5 µM

* * *

- Tested on: HT29 colon
- Experimental protocol: NCI tumour cell line growth inhibition, 48 h; in the data active = GI50 below about 0.43 µM; inactive = the rest
Classes to choose from: yes (1) for active, no (0) for inactive

Previously resolved entries follow.
>>> class_label("ClC1=C(Cl)C(Cl)=C(Cl)C1=Cc1ccc(Cl)cc1")
"yes (1)"
>>> class_label("COc1ccc(-n2sc(=O)n(Cc3ccc(COC(=O)C(C)c4ccc(CC(C)C)cc4)cc3)c2=O)cc1 (stereo not given)")
"no (0)"
>>> class_label("CC(=O)OCC(=O)C1(O)C(C)CC2C3C=C(C)C4=Cc5c(cnn5-c5ccccc5)CC4(C)C3C(O)CC21C (stereo not given)")
"no (0)"
>>> class_label("CCC[CH2][Sn]1([CH2]CCC)[O]C(=O)c2cc(C)ccc2[O]1")
"no (0)"
>>> class_label("CON")
"no (0)"

Fill in: this test's call for `N#CC[C@H](C1CCCC1)n1cc(-c2ncnc3[nH]ccc23)cn1` is ___
no (0)

Fill in: this test's call for `N#CC(C#N)=Cc1ccc(-c2ccc(-c3nc4ccccc4o3)cc2)o1` is ___
no (0)

Fill in: this test's call for `CS[C@@]1(C(=O)Nc2ccc3[nH]nc(-c4ccc(OC(C)C)nc4)c3c2)CCN(CC(=O)N2CC=C(c3ccc(-c4ncn(C)n4)cc3)CC2)C1` is ___
yes (1)

Fill in: this test's call for `CN(NC(=O)CC(=O)NN(C)C(=S)c1ccc(Cl)cc1)C(=S)c1ccc(Cl)cc1` is ___
no (0)

Fill in: this test's call for `C=C=[CH][Sn]([c]1ccccc1)([c]1ccccc1)[c]1ccccc1` is ___
no (0)

* * *

- Test system: M14 melanoma
- Experimental protocol: NCI tumour cell line growth inhibition, 48 h; in the data active means GI50 below about 0.43 µM; inactive means the rest
Classes to choose from: Y = active, N = inactive

Previously resolved entries follow.
>>> class_label("CC[O-].CC[O-].O=C([CH-]C(=O)c1ccccc1)c1ccccc1.O=C([CH-]C(=O)c1ccccc1)c1ccccc1.[Ti+4]")
"N"
>>> class_label("CC(=O)/C=C/C1=C(c2ccsc2)c2ccccc2CC1")
"N"
>>> class_label("C=C=[CH][Sn]([c]1ccccc1)([c]1ccccc1)[c]1ccccc1")
"N"
>>> class_label("C=C(C)[C@@H]1CC[C@]2(C)[C@H](C=CC3=C4C[C@@](C)(CO)CC[C@]4(C)CC[C@]32C)[C@@]1(C)CCCN")
"N"

Fill in: this test's call for `Cc1ccc(-c2cc(/C=N/O)on2)cc1` is ___
N

Fill in: this test's call for `N#CSCC(=O)c1ccc(Cl)cc1` is ___
N

Fill in: this test's call for `COc1cccc(Nc2nccc(Nc3ccc4[nH]ncc4c3)n2)c1` is ___
N

Fill in: this test's call for `CN(C)CCOc1nc2ccccc2c2c1-c1ccc(Cl)cc1C2=O` is ___
N

Fill in: this test's call for `COc1ccc(-n2cc(-c3ccc(OC)c(OC)c3)nc2SCc2ccccc2)cc1Cl` is ___
N

Fill in: this test's call for `Cc1cc2nc3c4ccccc4n(CCN(C)C)c3nc2cc1C` is ___
N

Fill in: this test's call for `CCOc1cc(/C=N\NC(=O)N/N=C/c2ccc(O)c(OCC)c2)ccc1O` is ___
N

Fill in: this test's call for `CNCCOc1nc2c3cnccc3cc(-c3cc(OC)c(OC)c(OC)c3)c2c2ccncc12` is ___
Y

* * *

- Test system: SN12C renal
- Experimental protocol: NCI tumour cell line growth inhibition, 48 h
Each entry below carries its recorded TGI.

>>> experimental_value("O=C(NC/C(Cl)=C/Cl)Nc1cccc2c1CCCC2")
"> 100 µM"

`O=c1c2ncn(CCCl)c2n(-c2ccccc2)c(=S)n1-c1ccccc1` on SN12C renal gives TGI = > 100 µM

`Brc1ccc(Br)nn1` on SN12C renal gives TGI = 3.53 µM

COC(=O)C(=O)C1CCCCC(C2=NC3NN=C(N)N3C2=O)C1=O (configuration not stated) on SN12C renal gives TGI = > 100 µM

COc1cc2c3c(c1O)C1(C=CC(=O)C=C1)CC3N(C)CC2 (configuration not stated) on SN12C renal gives TGI = 30.2 µM

`Oc1[nH]c2ccccc2c1N=NC(=S)N1CCCC1` on SN12C renal gives TGI = 31.9 µM

`Cc1ccccc1NC(=O)C(=O)Cc1cnc2ccccc2n1` on SN12C renal gives TGI = > 100 µM

COC(=O)C1=Cc2c(OC)cc(OC)c(OC)c2[C@H](c2cc(OC)c(OC)cc2OC)C1C(=O)OC (some centres not stated) on SN12C renal gives TGI = > 100 µM

CCN1C(=O)N(CC)C2C1NN=c1s/c(=C\c3ccccc3)c(=O)n12 (configuration not stated) on SN12C renal gives TGI = > 100 µM

C=C1CC(C/C=C(\C)CC2CC(=C)C(=O)O2)OC1=O (configuration not stated) on SN12C renal gives TGI = > 100 µM

`CCS/C(Nc1ccccc1)=C(\C#N)C(=O)N/N=C/c1ccc(Cl)cc1Cl` on SN12C renal gives TGI = > 100 µM

`CP(C)C.[Ag][I]` on SN12C renal gives TGI = > 100 µM

* * *

- System: SK-OV-3 ovarian
- Experimental protocol: NCI tumour cell line growth inhibition, 48 h
Each entry below carries its recorded TGI.

Consider the following illustrative entries.
>>> experimental_value("C[C@@H]1CN2[C@H]3[C@@H]1CC[C@]31CCC(=O)O[C@]1(C)[C@@H]1CC[C@H]3CCC=C3[C@@H]12")
"> 70 µM"
>>> experimental_value("O=C(NO)c1cnc(N2CCN(S(=O)(=O)c3ccc4ccccc4c3)CC2)nc1")
"2.33 µM"
>>> experimental_value("O=C(CCc1cccc(O)c1)NCCc1cccc(OCc2ccccc2)c1")
"53.5 µM"
>>> experimental_value("COc1cc(C2C(Cl)C(=O)N2NC(=O)Cc2ccccc2)ccc1O (stereo unspecified)")
"> 100 µM"

Sample `O=C(O)c1cc(N(Cc2ccccc2O)Cc2cc(O)ccc2O)ccc1O` ; TGI observed: > 100 µM

Sample OC1(c2ccc3ccccc3c2)c2ccc3ccccc3c2C2=NCCN21 (stereo unspecified) ; TGI observed: > 100 µM

* * *

- System: SR leukemia
- Experimental protocol: NCI tumour cell line growth inhibition, 48 h
Each entry below carries its recorded TGI.

Consider the following illustrative entries.
>>> experimental_value("O=C(/C=C/c1ccc(F)c(F)c1)OCCc1ccccc1")
"> 100 µM"
>>> experimental_value("CCCCOc1ccc(S(=O)(=O)/N=C(\\NN)Nc2ccc(Cl)cc2)cc1")
"52.6 µM"
>>> experimental_value("CCCC(=O)OCC(O)CO (stereo unspecified)")
"> 5000 µM"
>>> experimental_value("CCOC(=O)CC(N1CC1)N1CC1")
"> 10 µM"
>>> experimental_value("CCS/C(Nc1ccccc1)=C(\\C#N)C(=O)N/N=C/c1ccc(Cl)cc1Cl")
"> 100 µM"
>>> experimental_value("Brc1ccc(Br)nn1")
"3.52 µM"

Sample `c1cnc2c(c1)Nc1cnncc1S2` ; TGI observed: > 100 µM

Sample `COc1ccccc1OC(=O)/C=C/c1ccccc1` ; TGI observed: > 100 µM

* * *

- System: KM12 colon
- Experimental protocol: NCI tumour cell line growth inhibition, 48 h
Observed property: GI50

Consider the following illustrative entries.
>>> experimental_value("CCc1ccccc1-n1c(N)c(C#N)c(-c2ccc(OC)c(OC)c2)c(C#N)c1=O")
"16900 nM"
>>> experimental_value("COC(=O)Nc1nc2ccc(Sc3ccccc3)cc2[nH]1")
"63.4 nM"
>>> experimental_value("CC(C)N(C[C@H]1O[C@@H](n2cnc3c(N)ncnc32)[C@H](O)[C@@H]1O)C1CC(CCc2nc3ccc(C(C)(C)C)cc3[nH]2)C1 (stereo not given in full)")
"> 100000 nM"
>>> experimental_value("CC[O-].CC[O-].O=C([CH-]C(=O)c1ccccc1)c1ccccc1.O=C([CH-]C(=O)c1ccccc1)c1ccccc1.[Ti+4]")
"> 100000 nM"
>>> experimental_value("CNCCOc1nc2c3cnccc3cc(-c3cc(OC)c(OC)c(OC)c3)c2c2ccncc12")
"53.6 nM"

Sample CSc1ccc(C2=NN(C(=O)c3ccc(N)cc3)C(c3ccc(F)cc3)C2)cc1 (stereo not given) ; GI50 observed: 2030 nM

Sample `Oc1[nH]c2ccc(Cl)cc2c1/C=c1/ccc2c(c1)N=C(c1cc(F)cc(F)c1)N=2` ; GI50 observed: 3550 nM

Sample COc1ccc(C2C3=C(COC3=O)N(CCO)c3cc4c(cc32)OCCO4)cc1OC (stereo not given) ; GI50 observed: 1350 nM

Sample O=C(CC1(O)C(=O)Nc2c(Cl)ccc(Cl)c21)c1ccc(C2CC2)cc1 (stereo not given) ; GI50 observed: 445 nM

Sample `C/C(=N\Nc1cccc(Cl)n1)c1ccccn1` ; GI50 observed: 548 nM

Sample `C[C@@H]1CN2[C@H]3[C@@H]1CC[C@]31CCC(=O)O[C@]1(C)[C@@H]1CC[C@H]3CCC=C3[C@@H]12` ; GI50 observed: > 70000 nM

Sample `CS[C@@]1(C(=O)Nc2ccc3[nH]nc(-c4ccc(OC(C)C)nc4)c3c2)CCN(CC(=O)N2CC=C(c3ccc(-c4ncn(C)n4)cc3)CC2)C1` ; GI50 observed: 929 nM

Sample CCN1C(=O)N(CC)C2C1NN=c1s/c(=C\c3ccccc3)c(=O)n12 (stereo not given) ; GI50 observed: 70.5 nM
